TESTED SYSTEM: T1, CD300c antigen (11832-H08H, Sino Biological) (human, UniProt Q08708 21-183)
T1 construct: Bought antigen; also called CD300c protein; CD300 antigen-like family member C
T1 sequence (looked up): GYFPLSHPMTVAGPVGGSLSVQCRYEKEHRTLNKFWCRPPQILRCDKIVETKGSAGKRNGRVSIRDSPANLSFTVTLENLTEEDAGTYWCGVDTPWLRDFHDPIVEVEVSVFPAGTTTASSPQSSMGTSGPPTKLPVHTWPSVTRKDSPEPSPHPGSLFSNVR
ASSAY REMARKS: binding ELISA, plate coated with CD300c antigen (8 µg/mL), HRP anti-Fc IgG detection
EC50: recorded values
Answer with a number only, understood to be in µg/mL.

[
  {
    "BINDER": "CK3 (antibody, V domains shown, also called anti-CD300c monoclonal antibody CK3; CB301 antibody CK3) VH: RVQLLESGGGLVQPGGSLRLSCAASGFTFSSYAISWVRQAPGKGLEWVSATSGSGRATYYADSVKGRFTISRDNSKNTLYLQMNSLRAEDTAVYYCARDTWWEGYFDLWGQGTLVTVSS VL: EIVLTQSPGTLSLSPGERATLSCQASHISTHLNWYQQKPGQAPRLLIYGASSRATGIPDRFSGSGSGTDFTLTISRLEPEDFAVYYCQQYNTYPPTFGQGTKVEIK",
    "VALUE UNIT": "µg/mL",
    "TEST VALUE": 0.793
  }
]

The recorded EC50 for entry SK12 (antibody, V domains shown, also called anti-CD300c monoclonal antibody SK12; CB301 antibody SK12) VH: RVQLLESGGGLVQPGGSLRLSCAASGFTFSSYAMHWVRQAPGKGLEWVSAISGSGGDTYHADSVKGRFTISRDNSKNTLYLQMNSLRAEDTAVYYCTRGLSGFDYWGQGTLVTVSS VL: EIVLTQSPGTLSLSPGERATLSCRASQSISSYLNWYQQKPGQAPRLLIYDASNRAPGIPDRFSGSGSGTDFTLTISRLEPEDFAVYYCQQSYSIPITFGQGTKVEIKF equals 0.067

The recorded EC50 for entry CL10 (antibody, V domains shown, also called anti-CD300c monoclonal antibody CL10; CB301 antibody CL10) VH: EVQLLESGGGLVQPGGSLRLSCAASGFTFSSYGMHWVRQAPGKGLEWVSAISGSGGSTYYADSVKGRFTISRDNSKNTLYLQMNSLRAEDTAVYYCASGYGLMDVWGQGTLVTVSS VL: QSVLTQPPSASGTPGQRVTISCTRSSGIIASNYVQWYQQLPGTAPKLLIYRNNQRPSGVPDRFSGSKSGTSASLAISGLRSEDEADYYCSSYAGNNNLVFGGGTKLTVL equals 0.039

The recorded EC50 for entry CK1 (antibody, V domains shown, also called anti-CD300c monoclonal antibody CK1; CB301 antibody CK1) VH: EVQLLESGGGLVQPGGSLRLSCAASGFTFSRYAMTWVRQAPGKGLEWVSSMSGTGGTTYYADSVKGRFTISRDNSKNTLYLQMNSLRAEDTAVYYCARGAYGFDHWGQGTLVTVSS VL: EIVLTQSPGTLSLSPGERATLSCRASQSIGNYLNWYQQKPGQAPRLLIYDASNLETGIPDRFSGSGSGTDFTLTISRLEPEDFAVYYCQQSSAIPYTFGQGTKVEIK equals 0.056
